- assay target: HLA-A*23:01
- measurement description: IEDB peptide-MHC binding, purified MHC/competitive/radioactivity; filed as Kd, often an IC50 or EC50 that approximates it; bounds were set here for any values at or beyond the usual limits of such assays
- condition set: source organism: SARS coronavirus Tor2
Quick reference: pKd of the listed items.
Here pKd is given on a logarithmic scale as minus log10 of the concentration in mol/L.

Examples from the recorded data:
[[record]]
ordered_residues = "AFNCTFEYI"
property_label = "pKd"
observed_result = 5.03

[[record]]
ordered_residues = "LSFKELLVY"
property_label = "pKd"
observed_result = 5.60

[[record]]
ordered_residues = "TYVPSQERNF"
property_label = "pKd"
observed_result = 7.41

[[record]]
ordered_residues = "WFITQRNFF"
property_label = "pKd"
observed_result = 5.56

[[record]]
ordered_residues = "GYKNVRITF"
property_label = "pKd"
observed_result = 4.96


# ---- query sequence ----
Form field pKd, entry SAAAYFVGY : 5.21

###

- assay target: HLA-B*44:02
- measurement description: IEDB peptide-MHC binding, purified MHC/direct/fluorescence; filed as Kd, often an IC50 or EC50 that approximates it; bounds were set here for any values at or beyond the usual limits of such assays
- condition set: source organism: Vibrio parahaemolyticus
property label: Kd

Examples from the recorded data:
[[record]]
ordered_residues = "ALSMGINTV"
observed_result = "≥ 20 µM"

[[record]]
ordered_residues = "GRNSRFPDK"
observed_result = "≥ 20 µM"


# ---- query sequence ----
Form field Kd, entry EEDLPVTWR : ≥ 20 µM

###

- assay target: HLA-B*39:01
- measurement description: IEDB peptide-MHC binding, purified MHC/competitive/fluorescence; filed as Kd, often an IC50 or EC50 that approximates it; bounds were set here for any values at or beyond the usual limits of such assays
- condition set: source organism: Yersinia pestis KIM10+
property label: Kd
Could you give the number and then its unit, please?

Form field Kd, entry SRWAISHWL : 36.3 nM

###

- assay target: HLA-A*26:02
- measurement description: IEDB peptide-MHC binding, purified MHC/competitive/fluorescence; filed as Kd, often an IC50 or EC50 that approximates it; bounds were set here for any values at or beyond the usual limits of such assays
- condition set: source organism: Escherichia coli 536
pKd: −log10 of the molar value.
property label: pKd

Form field pKd, entry VMAASGAPF : ≤ 4.70

###

- assay target: HLA-A*02:01
- measurement description: IEDB peptide-MHC binding, purified MHC/competitive/fluorescence; bounds were set here for any values at or beyond the usual limits of such assays
- condition set: source organism: Variola virus
property label: pIC50
Here pIC50 is given on a logarithmic scale as minus log10 of the concentration in mol/L.

FLPNPAFIH tested on HLA-A*02:01 gave pIC50: 5.68

###

- assay target: HLA-A*02:11
- measurement description: IEDB peptide-MHC binding, purified MHC/direct/fluorescence; filed as Kd, often an IC50 or EC50 that approximates it; bounds were set here for any values at or beyond the usual limits of such assays
- condition set: source organism: Vibrio parahaemolyticus AQ3810
property label: Kd

Form field Kd, entry EPFLVQFWI : ≥ 20 µM

###

- assay target: HLA-A*29:02
- measurement description: IEDB peptide-MHC binding, purified MHC/competitive/radioactivity; filed as Kd, often an IC50 or EC50 that approximates it; bounds were set here for any values at or beyond the usual limits of such assays
- condition set: source organism: Triticum aestivum
property label: Kd (µM)
Supply the numeric figure in µM, leaving out any unit text.

Form field Kd, entry KSQVLQQSTY : 12
